Reference source: patent US20240076392A1

Biological target: T1, recombinant human CD123 protein (CD123)-His Acrobio #ILA-H52H6 (human, UniProt P26951 19-305)
T1 construct: Bought protein; also called hu IL-3R alpha (CD123)-His; not shown: His tag
T1 sequence (looked up): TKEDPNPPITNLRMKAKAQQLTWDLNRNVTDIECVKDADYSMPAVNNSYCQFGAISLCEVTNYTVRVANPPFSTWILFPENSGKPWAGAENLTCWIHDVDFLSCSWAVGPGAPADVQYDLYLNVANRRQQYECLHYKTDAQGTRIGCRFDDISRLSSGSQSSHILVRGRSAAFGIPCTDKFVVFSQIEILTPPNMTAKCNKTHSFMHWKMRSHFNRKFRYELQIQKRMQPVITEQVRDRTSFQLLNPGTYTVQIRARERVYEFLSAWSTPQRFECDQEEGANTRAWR
Assay: BLI (Octet), CD123-His on anti-penta-His sensors, IgG in solution, 1:1 global fit

Binder	koff
h32716-1-1 IgG (antibody, V domains shown, Human IgG format) VH: QVQLVQSGAEVKKPGSSVKVSCKASGYIFTNYGMNWVRQAPGQGLEWMGWINTYTGESTYSADFKGRVTITADESTSTAYMELSSLRSEDTAVYYCARSGGYDPMDYWGQGTLVTVSS VL: DIVMTQSPDSLAVSLGERATINCRASESVDNYGNTFMHWYQQKPGQPPKLLIYRASNLESGVPDRFSGSGSGTDFTLTISSLQAEDVAVYYCQQSNEDPPTFGQGTRLEIK	0.0004 s⁻¹
h32716-2-1 IgG (antibody, V domains shown, Human IgG format) VH: QVQLVQSGAEVKKPGSSVKVSCKASGYIFTNYGMNWVKQAPGQGLEWMGWINTYTGESTYSADFKGRFTFTLDESTSTAYMELSSLRSEDTAVYYCARSGGYDPMDYWGQGTLVTVSS VL: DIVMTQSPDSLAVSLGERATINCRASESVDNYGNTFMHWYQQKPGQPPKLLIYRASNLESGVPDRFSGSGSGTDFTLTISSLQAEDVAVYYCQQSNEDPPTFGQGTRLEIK	0.00049 s⁻¹
32716 IgG (antibody, V domains shown, Parental mouse variable domains cloned into human IgG format; detected with anti-human kappa; also called original mouse antibody) VH: QIQLVQSGPELKKPGETVKISCKASGYIFTNYGMNWVKQAPGKSFKWMGWINTYTGESTYSADFKGRFAFSLETSASTAYLHINDLKNEDTATYFCARSGGYDPMDYWGQGTSVTVSS VL: DIVLTQSPASLAVSLGQRATISCRASESVDNYGNTFMHWYQQKPGQPPKLLIYRASNLESGIPARFSGSGSRTDFTLTINPVEADDVATYYCQQSNEDPPTFGAGTKLELK	0.0003 s⁻¹
h32716-6-2 IgG (antibody, V domains shown, Human IgG format) VH: QVQLVQSGPELKKPGASVKVSCKASGYIFTNYGMNWVKQAPGQGFKWMGWINTYTGESTYSADFKGRFVFSLDTSVSTAYLQISSLKAEDTAVYYCARSGGYDPMDYWGQGTLVTVSS VL: DIQMTQSPSSLSASVGDRVTITCRASESVDNYGNTFMHWYQQKPGKAPKLLIYRASNLESGVPSRFSGSGSGTDFTFTISSLQPEDIATYYCQQSNEDPPTFGQGTKVEIK	0.0002 s⁻¹
